# Experimental target: Chromo domain-containing protein 1 (Saccharomyces cerevisiae (strain ATCC 204508 / S288c) (Baker's yeast)) (UniProt P32657)
# Sequence (P32657 whole entry, the tested form may be a part): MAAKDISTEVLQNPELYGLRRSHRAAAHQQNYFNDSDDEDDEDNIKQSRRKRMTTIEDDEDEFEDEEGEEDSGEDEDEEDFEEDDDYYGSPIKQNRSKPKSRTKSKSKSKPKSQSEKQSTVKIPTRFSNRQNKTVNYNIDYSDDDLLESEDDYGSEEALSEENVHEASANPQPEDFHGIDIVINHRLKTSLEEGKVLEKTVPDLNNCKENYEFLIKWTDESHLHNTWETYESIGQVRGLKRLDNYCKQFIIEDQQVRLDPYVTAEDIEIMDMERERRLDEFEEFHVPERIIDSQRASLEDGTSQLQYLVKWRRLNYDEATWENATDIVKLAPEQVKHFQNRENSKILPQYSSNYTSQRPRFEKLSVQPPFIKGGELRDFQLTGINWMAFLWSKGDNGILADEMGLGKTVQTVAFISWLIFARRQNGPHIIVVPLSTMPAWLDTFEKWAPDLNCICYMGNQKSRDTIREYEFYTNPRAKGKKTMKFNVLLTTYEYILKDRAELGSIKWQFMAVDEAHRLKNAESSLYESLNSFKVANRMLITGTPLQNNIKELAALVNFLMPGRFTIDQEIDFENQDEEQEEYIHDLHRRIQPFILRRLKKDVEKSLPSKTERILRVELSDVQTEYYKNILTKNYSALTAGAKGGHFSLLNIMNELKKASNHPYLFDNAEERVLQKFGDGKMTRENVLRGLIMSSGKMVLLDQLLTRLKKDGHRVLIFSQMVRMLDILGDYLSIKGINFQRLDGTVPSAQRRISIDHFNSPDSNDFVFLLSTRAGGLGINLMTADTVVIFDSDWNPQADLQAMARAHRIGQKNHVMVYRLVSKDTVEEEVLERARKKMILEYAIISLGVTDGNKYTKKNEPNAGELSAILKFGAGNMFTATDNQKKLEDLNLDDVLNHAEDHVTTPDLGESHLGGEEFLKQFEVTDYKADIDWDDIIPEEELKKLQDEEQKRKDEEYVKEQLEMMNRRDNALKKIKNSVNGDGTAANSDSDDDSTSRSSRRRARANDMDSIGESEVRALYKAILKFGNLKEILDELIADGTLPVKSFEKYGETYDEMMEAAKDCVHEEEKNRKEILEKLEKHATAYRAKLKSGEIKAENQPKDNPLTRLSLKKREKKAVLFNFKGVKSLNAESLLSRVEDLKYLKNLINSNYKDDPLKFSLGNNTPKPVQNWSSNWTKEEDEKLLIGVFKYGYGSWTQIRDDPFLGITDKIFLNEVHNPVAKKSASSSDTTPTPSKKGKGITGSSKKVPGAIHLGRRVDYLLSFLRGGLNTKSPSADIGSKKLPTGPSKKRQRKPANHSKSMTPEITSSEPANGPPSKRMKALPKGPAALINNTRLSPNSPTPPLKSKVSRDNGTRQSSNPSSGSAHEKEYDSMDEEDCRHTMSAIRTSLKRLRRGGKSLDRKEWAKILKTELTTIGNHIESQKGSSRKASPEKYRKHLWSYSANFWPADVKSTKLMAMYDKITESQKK
# Run description: ScCHD-1 Enzyme Inhibition Assay
# Format: functional
# Parameters: scale not given: in the data most compounds retested in dose-response had high values
# Condition parameters: 30 µM
Recorded metric: Percent Effect (%)

- Compound: "CN1CCCC(Cc2ccnc3ccncc23)CC1 (configuration not stated)"
  Recorded metric: "Percent Effect"
  Measurement units: "%"
  Reported value: 4.65
- Compound: "CS(=O)(=O)NCC1CCCN(C(=O)Nc2cccnc2N2CCCC2)C1 (configuration not stated)"
  Recorded metric: "Percent Effect"
  Measurement units: "%"
  Reported value: -7
- Compound: "CCOc1cc(C)ccc1NC(=O)N(C)Cc1cnn(C)c1"
  Recorded metric: "Percent Effect"
  Measurement units: "%"
  Reported value: -9.07
- Compound: "CCC(O)CNC(=O)c1coc(COc2ccc3sc(C)nc3c2)n1 (configuration not stated)"
  Recorded metric: "Percent Effect"
  Measurement units: "%"
  Reported value: 2.81
- Compound: "Cc1ccc(C)c(NC(=O)c2n[nH]c(-n3cnnc3)n2)c1"
  Recorded metric: "Percent Effect"
  Measurement units: "%"
  Reported value: -4
- Compound: "CCCSCC(=O)Nc1ncn(CC(=O)NCc2ccccc2)n1"
  Recorded metric: "Percent Effect"
  Measurement units: "%"
  Reported value: -6.22
- Compound: "Cc1noc(C)c1C(=O)NCC(C)N(C)C (configuration not stated)"
  Recorded metric: "Percent Effect"
  Measurement units: "%"
  Reported value: -3.89
- Compound: "CC(C(=O)NCc1ccnc(N2CCN(C)CC2)c1)n1cccn1 (configuration not stated)"
  Recorded metric: "Percent Effect"
  Measurement units: "%"
  Reported value: -5.23
- Compound: "O=C(c1ccccn1)N1CCCC(c2nccn2Cc2ccncc2)C1 (configuration not stated)"
  Recorded metric: "Percent Effect"
  Measurement units: "%"
  Reported value: -14
- Compound: "CC(C)NS(=O)(=O)c1cc(C(=O)O)cc(-c2ccccc2CN(C)C)c1"
  Recorded metric: "Percent Effect"
  Measurement units: "%"
  Reported value: -3.44
- Compound: "O=C(c1ccn(-c2ccccc2Cl)n1)N1CCSCC1"
  Recorded metric: "Percent Effect"
  Measurement units: "%"
  Reported value: -3.09
- Compound: "COc1cc(CNC2CCc3nc(C(C)C)nn3C2)cc2c1OCO2 (configuration not stated)"
  Recorded metric: "Percent Effect"
  Measurement units: "%"
  Reported value: -3.88

meta.source: ChEMBL document CHEMBL3988442
